Values compiled from the NIST ThermoML archive (doi:10.1021/je900550v).

Conditions: 305.15 K; 101.33 kPa; Liquid; Pulse-echo method
Numbers after ± are expanded uncertainties.
MEASURED ENDPOINT: speed of sound
Dear colleague, please send the value followed by its unit.

Recorded results for 4 compounds are shown here.
COMPOUND	speed of sound
CC(C)C(=O)[O-].C[NH2+]CCO [2-hydroxy-N-methylethanaminium isobutyrate]	1591.5 ± 2.1 m/s
CCCC(=O)[O-].C[NH2+]CCO [N-methyl-2-hydroxyethylammonium butanoate]	1592.4 ± 2.1 m/s
CCCCC(=O)[O-].C[NH2+]CCO [2-hydroxy-N-methylethanaminium pentanoate]	1526.8 ± 2.1 m/s
C[NH2+]CCO.O=C[O-] [2-hydroxy-N-methylethanaminium formate]	1801.7 ± 2.2 m/s

Moving on to the next compound.
(Q) Quick one: speed of sound for CCC(=O)[O-].C[NH2+]CCO [2-hydroxy-N-methylethanaminium propionate] ?
(A) 1669.3 ± 2.2 m/s

----------
Record form. Attribute: mass density. Fill in for each entry.
Conditions: 319.65 K; 101.33 kPa; Liquid; Vibrating tube method
Numbers only, in kg/m3.

Recorded results for 5 compounds are shown here.
COMPOUND	mass density [kg/m3]
CC(=O)[O-].C[NH2+]CCO [N-methyl-2-hydroxyethylammonium acetate]	1087.79
CCC(=O)[O-].C[NH2+]CCO [2-hydroxy-N-methylethanaminium propionate]	1057.17
CCCC(=O)[O-].C[NH2+]CCO [N-methyl-2-hydroxyethylammonium butanoate]	1024.69
CCCCC(=O)[O-].C[NH2+]CCO [2-hydroxy-N-methylethanaminium pentanoate]	1001.66
CC(C)C(=O)[O-].C[NH2+]CCO [2-hydroxy-N-methylethanaminium isobutyrate]	1029.37

Moving on to the next compound.
(Q) Quick one: mass density for C[NH2+]CCO.O=C[O-] [2-hydroxy-N-methylethanaminium formate] ?
(A) 1116.27

----------
Record form. Attribute: speed of sound. Fill in for each entry.
Details: 306.15 K; 101.33 kPa; Liquid; Pulse-echo method
Numbers only, in m/s.

Recorded results for 4 compounds are shown here.
COMPOUND	speed of sound [m/s]
CCCCC(=O)[O-].C[NH2+]CCO [2-hydroxy-N-methylethanaminium pentanoate]	1523.8
CCCC(=O)[O-].C[NH2+]CCO [N-methyl-2-hydroxyethylammonium butanoate]	1589.3
CCC(=O)[O-].C[NH2+]CCO [2-hydroxy-N-methylethanaminium propionate]	1666.4
CC(C)C(=O)[O-].C[NH2+]CCO [2-hydroxy-N-methylethanaminium isobutyrate]	1588.7

(Q) Quick one: speed of sound for C[NH2+]CCO.O=C[O-] [2-hydroxy-N-methylethanaminium formate] ?
(A) 1799.7

----------
Conditions: 332.66 K; 101.33 kPa; Liquid; Vibrating tube method
Numbers after ± are expanded uncertainties.
MEASURED ENDPOINT: mass density
Dear colleague, please send the value followed by its unit.

MOLECULE	mass density
CC(=O)[O-].C[NH2+]CCO [N-methyl-2-hydroxyethylammonium acetate]	1079.66 ± 2.2 kg/m3

Hello, I would appreciate it if you could give mass density for each entry below.
1. CC(C)C(=O)[O-].C[NH2+]CCO [2-hydroxy-N-methylethanaminium isobutyrate]
2. CCC(=O)[O-].C[NH2+]CCO [2-hydroxy-N-methylethanaminium propionate]
3. CCCCC(=O)[O-].C[NH2+]CCO [2-hydroxy-N-methylethanaminium pentanoate]
4. CCCC(=O)[O-].C[NH2+]CCO [N-methyl-2-hydroxyethylammonium butanoate]

(A)
1020.61 ± 2.2 kg/m3
1048.36 ± 2.2 kg/m3
992.592 ± 2.1 kg/m3
1015.6 ± 2.2 kg/m3

(Q) Quick one: mass density for C[NH2+]CCO.O=C[O-] [2-hydroxy-N-methylethanaminium formate] ?
(A) 1109.21 ± 2.2 kg/m3
